Values compiled from ChEMBL document CHEMBL5360531.

# target_under_test: NAD-dependent protein deacylase sirtuin-5, mitochondrial (Homo sapiens, UniProt Q9NXA8)
# Sequence (Q9NXA8 whole entry): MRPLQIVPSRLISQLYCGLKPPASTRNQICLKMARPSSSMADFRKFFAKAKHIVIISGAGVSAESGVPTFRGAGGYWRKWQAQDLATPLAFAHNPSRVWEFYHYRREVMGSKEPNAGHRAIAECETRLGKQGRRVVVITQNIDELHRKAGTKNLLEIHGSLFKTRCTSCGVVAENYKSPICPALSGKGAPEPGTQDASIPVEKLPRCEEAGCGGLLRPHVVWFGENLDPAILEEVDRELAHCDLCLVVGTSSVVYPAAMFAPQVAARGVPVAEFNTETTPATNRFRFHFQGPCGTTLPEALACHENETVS
# protocol_notes: Inhibition of human SIRT5 by fluorescence based analysis
measurement_label: IC50 (µM)

// solved cases for IC50 follow
> print(dat)
                           structure.smiles  result.number
1  COC(=O)c1ccc(/C=C2/C(=O)N(c3nc(-c4ccc(C#N)cc4)cs3)N=C2C)cc1           5.26
2  COc1cccc(-c2csc(N3N=C(C)/C(=C\c4ccc(C(=O)O)cc4)C3=O)n2)c1           3.08
3  COC(=O)c1ccc(/C=C2/C(=O)N(c3nc(-c4ccc(O)cc4)cs3)N=C2C)cc1           12.8
4  CC1=NN(c2nc(-c3ccccc3F)cs2)C(=O)/C1=C/c1ccc(C(=O)O)cc1           4.18
5  COC(=O)c1ccc(/C=C2/C(=O)N(c3nc(-c4ccc(OC)cc4)cs3)N=C2C)cc1           10.2

P = COC(=O)c1ccc(/C=C2/C(=O)N(c3nc(-c4ccc(Br)cc4)cs3)N=C2C)cc1
Q = CC1=NN(c2nc(-c3ccc(C#N)cc3)cs2)C(=O)/C1=C/c1ccc(C(=O)O)cc1
Query: // pick min by IC50: P , Q Select an item and report its label.
Reply: Q
(Q: 1.05 µM, P: 4.36 µM)

P = COC(=O)c1ccc(/C=C2/C(=O)N(c3nc(-c4ccccc4F)cs3)N=C2C)cc1
Q = CC1=NN(c2nc(-c3ccc(F)cc3)cs2)C(=O)/C1=C/c1ccc(Cl)cc1
R = CC1=NN(c2nc(-c3ccc(C(F)(F)F)cc3)cs2)C(=O)/C1=C/c1ccc(C(=O)O)cc1
S = CC1=NN(c2nc(-c3ccc(C)cc3)cs2)C(=O)/C1=C/c1ccc(C(=O)O)cc1
T = COC(=O)c1ccc(/C=C2/C(=O)N(c3nc(-c4ccccc4OC)cs3)N=C2C)cc1
Query: Arrange these molecules by their IC50, starting with the largest number. To answer, arrange all of the labels according to the requested order.
Reply: T, P, Q, S, R
(T: 20.6 µM, P: 12.7 µM, Q: 6.28 µM, S: 1.28 µM, R: 0.52 µM)

A = COC(=O)c1ccc(/C=C2/C(=O)N(c3nc(-c4cccc(OC)c4)cs3)N=C2C)cc1
B = CC1=NN(c2nc(-c3cccc(C)c3)cs2)C(=O)/C1=C/c1ccc(C(=O)O)cc1
Query: Compare A and B by numeric IC50 and name the larger one. Write down the label of the entry you select.
Reply: A

1 = COC(=O)c1ccc(/C=C2/C(=O)N(c3nc(-c4cccc(F)c4)cs3)N=C2C)cc1
2 = COc1ccc(-c2csc(N3N=C(C)/C(=C\c4ccc(C)cc4)C3=O)n2)cc1
Query: Between 1 and 2 , whose recorded IC50 is greater? Write the label of whichever entry you select.
Reply: 2
(2: 36.8 µM, 1: 10.6 µM)
